Origin of measurements: paper PMC11910330

- experimental_target: recombinant GST-tagged CaN A subunit, Q08209
- assay_overview: in vitro peptide pull-down (biotinylated peptide, immunoblot quantification)
- measurement_conditions: chain shown with the change; recombinant GST-CaN (200 ng); parent: est. 47; read off a plot
Give measured response (% CaN input recovered) for each item. Keep answers brief.
API note: the answer field is a bare number with no unit suffix.

(Q) GET /values?readout=response (% CaN input recovered)&item= MAGPHTMIVITGPHEE [APP peptide (APP core CaN-binding sequence in the PVIVIT peptide) V640M]
(A) 43

(Q) GET /values?readout=response (% CaN input recovered)&item= MAGPHTVIFITGPHEE [APP peptide (APP core CaN-binding sequence in the PVIVIT peptide) V642F]
(A) 44

(Q) GET /values?readout=response (% CaN input recovered)&item= MAGPHTVIIITGPHEE [APP peptide (APP core CaN-binding sequence in the PVIVIT peptide) V642I]
(A) 44

(Q) GET /values?readout=response (% CaN input recovered)&item= MAGPHTVIVIPGPHEE [APP peptide (APP core CaN-binding sequence in the PVIVIT peptide) T644P]
(A) 5

(Q) GET /values?readout=response (% CaN input recovered)&item= MAGPHIVIVITGPHEE [APP peptide (APP core CaN-binding sequence in the PVIVIT peptide) T639I]
(A) 54

(Q) GET /values?readout=response (% CaN input recovered)&item= MAGPHTVFVITGPHEE [APP peptide (APP core CaN-binding sequence in the PVIVIT peptide) I641F]
(A) 23
